- TARGET OR TEST SYSTEM: CAMK4 (human)
- PROTOCOL DESCRIPTION: radiometric filter-binding kinase assay, Kinase HotSpot
- MEASUREMENT CONDITIONS: compound 0.5 µM; ATP 10 µM
MEASURE: residual activity (%)
Numbers only, in %.

N#C/C(=C(/N)Sc1ccc(N)cc1)c1ccccc1C(F)(F)F	110

Hey, quick one: what's residual activity for each of these?
1. O=c1cc(N2CCOCC2)oc2c1ccc1ccccc12
2. Cc1[nH]c(/C=C2\C(=O)Nc3ccc(S(=O)(=O)N(C)c4cccc(Cl)c4)cc32)c(C)c1C(=O)N1CCN(C)CC1
3. c1ccc(-c2n[nH]c3c2oc2ccccc23)cc1

a:
[94, 96.2, 93.7]

Hey, quick one: what's residual activity for each of these?
1. CCN(CC)CCNC(=O)c1c(C)[nH]c(/C=C2\C(=O)Nc3ccc(Cl)cc32)c1C
2. O=C1NC(=O)C(c2cn(CCCn3ccnc3)c3ccccc23)=C1Nc1ccccc1
3. N#CC(C#N)=C(N)/C(C#N)=C/c1ccc(O)cc1
4. O=C(Nc1cccc(Nc2nccc(Nc3cccc(C(F)(F)F)c3)n2)c1)C1CC1
5. Nc1ncnc2c1c(-c1ccc(Oc3ccccc3)cc1)cn2C1CCCC1
6. CCN(CC)CCNC(=O)c1c(C)[nH]c(/C=C2\C(=O)Nc3ccc(F)cc32)c1C

a:
[95, 103, 97.2, 97.9, 101, 88.6]

---

- TARGET OR TEST SYSTEM: PAK4 (human)
- PROTOCOL DESCRIPTION: radiometric filter-binding kinase assay, Kinase HotSpot
- MEASUREMENT CONDITIONS: compound 0.5 µM; ATP 10 µM
We use 90% as the dividing line for residual activity: on or above the line is true, below is false.

Examples with answers:
O=c1cc(N2CCOCC2)oc2c1ccc1ccccc12	true
O=C1NC(=O)c2c1c1c3ccccc3n3c1c1c2c2ccccc2n1C1CCC3O1	false
CCOC(=O)c1c(C)[nH]c(/C=C2\C(=O)Nc3ccccc32)c1C	false

q: Kindly determine if residual activity recorded for Nc1ccc2ncnc(NCCc3ccc(Oc4ccccc4)cc3)c2c1 is above or exactly 90%.
a: true

---

- TARGET OR TEST SYSTEM: RPS6KA4 KD2 (human)
- PROTOCOL DESCRIPTION: radiometric filter-binding kinase assay, Kinase HotSpot
- MEASUREMENT CONDITIONS: compound 0.5 µM; ATP 10 µM
MEASURE: residual activity (%)
Numbers only, in %.

Here are 6 molecules together with their reported answers.
CNc1cc2c(Nc3cccc(Br)c3)ncnc2cn1	109
c1ccc(-c2n[nH]cc2-c2ccnc3ccccc23)nc1	87.2
CC[n+]1c(/C=C/N(C)c2ccccc2)n(-c2ccccc2)c2ccc(-c3nc4ccccc4s3)cc21	94.6
COc1ccc(COc2ccc(Cc3cnc(N)nc3N)cc2OC)cc1	107
Nc1ncnc2[nH]nc(Nc3ccc(F)cc3)c12	114
Nc1ccc2ncnc(NCCc3ccc(Oc4ccccc4)cc3)c2c1	107

Hey, quick one: what's residual activity for each of these?
1. O=C1NC(=O)C(c2cn(CCCn3ccnc3)c3ccccc23)=C1Nc1ccccc1
2. O=C(Nc1cccc(Nc2nccc(Nc3cccc(C(F)(F)F)c3)n2)c1)C1CC1
3. Cc1ccc(S(=O)(=O)/C=C/C#N)cc1
4. O=C1Nc2ccc(Cl)cc2/C1=C/c1cc(Cl)c(O)c(Cl)c1

a:
[44.4, 104, 82.8, 98]

Hey, quick one: what's residual activity for each of these?
1. O=S(=O)(c1cccc2cnccc12)N1CCCNCC1
2. N#CC(C#N)=C(N)/C(C#N)=C/c1ccc(O)cc1
3. CCC(=O)Nc1ccc2ncnc(Nc3cccc(Br)c3)c2c1
4. CC(C)N(CCC(=O)c1ccc2ccccc2c1)Cc1ccccc1

a:
[81.8, 99.7, 106, 109]

---

Answer each item with its documented residual activity.
- TARGET OR TEST SYSTEM: CSNK1A1 (human) (UniProt P48729)
- Sequence (P48729 whole entry, looked up): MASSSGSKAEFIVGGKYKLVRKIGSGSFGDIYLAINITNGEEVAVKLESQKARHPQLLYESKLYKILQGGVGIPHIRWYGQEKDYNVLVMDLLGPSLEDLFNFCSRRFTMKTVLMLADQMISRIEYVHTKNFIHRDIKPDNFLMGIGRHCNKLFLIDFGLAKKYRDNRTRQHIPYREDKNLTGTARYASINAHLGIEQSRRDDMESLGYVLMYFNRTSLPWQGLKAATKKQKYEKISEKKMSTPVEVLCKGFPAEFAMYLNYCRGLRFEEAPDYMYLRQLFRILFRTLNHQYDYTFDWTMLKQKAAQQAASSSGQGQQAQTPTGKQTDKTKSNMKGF
- PROTOCOL DESCRIPTION: radiometric filter-binding kinase assay, Kinase HotSpot
- MEASUREMENT CONDITIONS: compound 0.5 µM; ATP 10 µM
Numbers only, in %.

Here are 8 compounds together with their reported answers.
COc1ccc(COc2ccc(Cc3cnc(N)nc3N)cc2OC)cc1	97.9
CNC(=O)c1cc(Oc2ccc(NC(=O)Nc3ccc(Cl)c(C(F)(F)F)c3)cc2)ccn1	97.8
c1ccc(-c2n[nH]c3c2oc2ccccc23)cc1	73.8
N#CC(C#N)=C(N)/C(C#N)=C/c1ccc(O)cc1	85
O=C1NC(=O)c2c1c1c3ccccc3n3c1c1c2c2ccccc2n1C1CCC3O1	104
Nc1ncnc2[nH]nc(Nc3ccc(F)cc3)c12	90.3
Nc1cccc(-c2cc3c(Oc4cccc(O)c4)ncnc3[nH]2)c1	61.8
Nc1ncnc2c1c(-c1ccc(Oc3ccccc3)cc1)cn2C1CCCC1	84.9

Hey, quick one: what's residual activity for each of these?
1. CC#CC(=O)Nc1cc2c(Nc3ccc(F)c(Cl)c3)ncnc2cn1
2. CC[n+]1c(/C=C/N(C)c2ccccc2)n(-c2ccccc2)c2ccc(-c3nc4ccccc4s3)cc21
3. CCOC(=O)c1c(C)[nH]c(/C=C2\C(=O)Nc3ccccc32)c1C

a:
1: 107; 2: 106; 3: 98.6

---

- TARGET OR TEST SYSTEM: CDK2 CCNE1 (human) (UniProt P24941+P24864)
- Sequence (P24864 whole entry, looked up, other chains not shown): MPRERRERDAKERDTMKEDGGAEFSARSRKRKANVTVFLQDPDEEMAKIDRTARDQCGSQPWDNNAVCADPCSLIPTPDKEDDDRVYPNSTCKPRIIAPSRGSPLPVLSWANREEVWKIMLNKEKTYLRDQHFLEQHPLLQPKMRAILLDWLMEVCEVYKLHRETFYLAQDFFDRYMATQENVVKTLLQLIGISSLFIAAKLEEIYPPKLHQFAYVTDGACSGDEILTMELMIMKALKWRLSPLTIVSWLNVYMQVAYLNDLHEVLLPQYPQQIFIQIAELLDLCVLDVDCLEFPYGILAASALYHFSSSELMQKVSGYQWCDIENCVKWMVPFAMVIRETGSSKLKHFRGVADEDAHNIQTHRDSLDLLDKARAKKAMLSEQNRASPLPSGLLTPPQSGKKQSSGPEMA
- PROTOCOL DESCRIPTION: radiometric filter-binding kinase assay, Kinase HotSpot
- MEASUREMENT CONDITIONS: compound 0.5 µM; ATP 10 µM
MEASURE: residual activity
# include the unit after the value

CNc1cc2c(Nc3cccc(Br)c3)ncnc2cn1	88.6%
CC(C)N(CCC(=O)c1ccc2ccccc2c1)Cc1ccccc1	89.2%
CNC(=O)c1cc(Oc2ccc(NC(=O)Nc3ccc(Cl)c(C(F)(F)F)c3)cc2)ccn1	98.2%
Nc1cccc(-c2cc3c(Oc4cccc(O)c4)ncnc3[nH]2)c1	90%
Cc1[nH]c(/C=C2\C(=O)Nc3ccc(S(=O)(=O)N(C)c4cccc(Cl)c4)cc32)c(C)c1C(=O)N1CCN(C)CC1	87%

Hey, quick one: what's residual activity for each of these?
1. N#C/C(=C(/N)Sc1ccc(N)cc1)c1ccccc1C(F)(F)F
2. O=C1NC(=O)/C(=C/c2ccc3c(c2)OC(F)(F)O3)S1
3. c1ccc(-c2n[nH]cc2-c2ccnc3ccccc23)nc1
4. COc1cc2ncnc(Nc3cccc(Cl)c3)c2cc1OC
5. O=C(Nc1cccc(Nc2nccc(Nc3cccc(C(F)(F)F)c3)n2)c1)C1CC1
6. CC[n+]1c(/C=C/N(C)c2ccccc2)n(-c2ccccc2)c2ccc(-c3nc4ccccc4s3)cc21

a:
95.4%
89.9%
91.3%
90.4%
85.1%
92.9%

Hey, quick one: what's residual activity for each of these?
1. Cc1ccc(NC2=CC(=O)c3sc(C)nc3C2=O)cc1
2. COC[C@H]1OC(=O)c2coc3c2[C@@]1(C)C1=C(C3=O)[C@@H]2CCC(=O)[C@@]2(C)C[C@H]1OC(C)=O
3. COc1ccc2c(c[n+](C)c3c4cc5c(cc4ccc23)OCO5)c1OC
4. Oc1cccc(-c2nc(N3CCOCC3)c3oc4ncccc4c3n2)c1
5. N#CC(C#N)=C(N)/C(C#N)=C/c1ccc(O)cc1
6. Nc1ncnc2c1c(-c1ccc(Oc3ccccc3)cc1)cn2C1CCCC1
7. CC#CC(=O)Nc1cc2c(Nc3ccc(F)c(Cl)c3)ncnc2cn1

a:
72.9%
105%
88.9%
85.5%
97%
91.3%
98.1%

---

- TARGET OR TEST SYSTEM: MAP3K8 (human)
- PROTOCOL DESCRIPTION: radiometric filter-binding kinase assay, Kinase HotSpot
- MEASUREMENT CONDITIONS: compound 0.5 µM; ATP 10 µM
Answer each item with its documented residual activity.
Answers are plain numbers, in %.

Here are 2 compounds together with their reported answers.
O=C1NC(=O)C(c2cn(CCCn3ccnc3)c3ccccc23)=C1Nc1ccccc1	100
Nc1ccc2ncnc(NCCc3ccc(Oc4ccccc4)cc3)c2c1	97.2

Hey, quick one: what's residual activity for each of these?
1. CCOC(=O)c1c(C)[nH]c(/C=C2\C(=O)Nc3ccccc32)c1C
2. CC(=O)c1ccc(N2CCOCC2)cc1O

a:
108
99.4

Hey, quick one: what's residual activity for each of these?
1. N#C/C(=C(/N)Sc1ccc(N)cc1)c1ccccc1C(F)(F)F
2. O=S(=O)(c1cccc2cnccc12)N1CCCNCC1
3. CO[C@H]1CC2CC[C@@H](C)[C@@](O)(O2)C(=O)C(=O)N2CCCC[C@H]2C(=O)OC([C@H](C)C[C@@H]2CC[C@@H](O)[C@H](OC)C2)CC(=O)[C@H](C)/C=C(\C)[C@@H](O)[C@@H](OC)C(=O)[C@H](C)C[C@H](C)/C=C/C=C/C=C/1C (stereo partly specified)
4. CNc1cc2c(Nc3cccc(Br)c3)ncnc2cn1

a:
1: 96.5; 2: 91.8; 3: 99.8; 4: 90.2
